target system: human OX2R (Homo sapiens (Human), UniProt O43614)
Sequence (O43614 whole entry): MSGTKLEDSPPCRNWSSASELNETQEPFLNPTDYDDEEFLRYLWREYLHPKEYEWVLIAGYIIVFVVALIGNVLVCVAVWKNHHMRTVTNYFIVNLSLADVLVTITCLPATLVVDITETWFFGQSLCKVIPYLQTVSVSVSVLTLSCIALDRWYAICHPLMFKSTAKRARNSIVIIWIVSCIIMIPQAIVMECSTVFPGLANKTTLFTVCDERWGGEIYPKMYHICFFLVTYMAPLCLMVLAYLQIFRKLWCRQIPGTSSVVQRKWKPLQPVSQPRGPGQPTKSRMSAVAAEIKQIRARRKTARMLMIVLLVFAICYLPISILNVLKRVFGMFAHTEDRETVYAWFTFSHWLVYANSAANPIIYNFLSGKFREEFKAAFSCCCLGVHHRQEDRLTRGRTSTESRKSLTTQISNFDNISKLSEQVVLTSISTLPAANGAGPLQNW
assay summary: IPOne (IP-1) assay in CHO cells expressing human OX2R
Assay type: cell-based
experimental setup: CHO, percentage of mean max effect of a reference compound at 1 uM (100% activity by comparison to Orexin A), human OX2R; read-out: Emax (%)
Emax overview
Respond numerically; units are % and should not be typed.

Examples from the recorded data:
>  <compound>
COC(=O)N1[C@H](C(F)(F)F)C[C@H](NS(C)(=O)=O)[C@@H]1CO[C@H]1CC[C@@]2(c3ncc(F)cn3)C[C@H]2C1 (single isomer, unassigned)

>  <target system>
human OX2R (Homo sapiens (Human), UniProt O43614)

>  <units of measure>
%

>  <Emax>
101

$$$$
>  <compound>
C[C@@H]1C[C@H](NS(C)(=O)=O)[C@H](CO[C@H]2CC[C@@]3(c4ncc(F)cn4)C[C@H]3C2)N1C(=O)OCC1(F)CC1

>  <target system>
human OX2R (Homo sapiens (Human), UniProt O43614)

>  <units of measure>
%

>  <Emax>
104

$$$$

So what does the record say about Emax for CC(C)OC(=O)N1[C@H](C)C[C@H](NS(=O)(=O)N(C)C)[C@@H]1COC1CCC2(c3ncccn3)CC2C1 (stereo partly drawn) ? 95.4

====

Emax overview
target system: human OX2R (Homo sapiens (Human), UniProt O43614)
assay summary: IPOne (IP-1) assay in CHO cells expressing human OX2R
Assay type: cell-based
experimental setup: CHO, percentage of mean max effect of a reference compound at 1 uM (100% activity by comparison to Orexin A), human OX2R; read-out: Emax (%)
Respond numerically; units are % and should not be typed.

Examples from the recorded data:
>  <compound>
COC(=O)N1[C@H](C)C[C@H](NS(=O)(=O)C(F)F)[C@@H]1CO[C@H]1CC[C@@]2(c3ncccn3)C[C@H]2C1 [Example 68]

>  <Emax, %>
99.7

$$$$
>  <compound>
COC(=O)N1[C@H](C)C[C@H](NS(C)(=O)=O)[C@@H]1CO[C@H]1CC[C@@]2(c3ncccn3)C[C@H]2C1 (single isomer, unassigned) [Example 181]

>  <Emax, %>
101

$$$$

We now examine a further compound.
So what does the record say about Emax for COC(=O)N1[C@@H]2CCC[C@@H]2[C@H](NS(C)(=O)=O)[C@@H]1CO[C@H]1CC[C@@]2(c3ncc(F)cn3)C[C@H]2C1 (single isomer, unassigned) [Example 131] ? 101

====

Emax (%) overview
target system: human OX2R (Homo sapiens (Human), UniProt O43614)
assay summary: IPOne (IP-1) assay in CHO cells expressing human OX2R
Type: cell-based
experimental setup: percentage of mean max effect of a reference compound at 1 uM (100% activity by comparison to Orexin A), human OX2R
In your response, put the unit directly after the numeric value.

Examples from the recorded data:
>  <compound>
CC(C)OC(=O)N1[C@H](C)C[C@H](NS(=O)(=O)N(C)C)[C@@H]1COC1CCC2(c3ncccn3)CC2C1 (stereo partly drawn) [Example 8]

>  <Emax (%)>
95.4%

$$$$
>  <compound>
CC(C)OC(=O)N1[C@H](C)C[C@H](NS(=O)(=O)C(F)F)[C@@H]1COC1CC[C@]2(c3ncc(F)cn3)CC2C1 (stereo partly drawn) [Example 110]

>  <Emax (%)>
100.9%

$$$$

We now examine a further compound.
So what does the record say about Emax (%) for COC(=O)N1[C@H](C)C[C@H](NS(C)(=O)=O)[C@@H]1CO[C@H]1CC[C@@]2(c3ncccn3)C[C@H]2C1 (single isomer, unassigned) [Example 19] ? 100.9%

====

target system: human OX2R (Homo sapiens (Human))
assay summary: IPOne (IP-1) assay in CHO cells expressing human OX2R
Type: cell-based
experimental setup: CHO, percentage of mean max effect of a reference compound at 1 uM (100% activity by comparison to Orexin A), human OX2R; read-out: Emax (%)
readout name: Emax (%)
Respond numerically; units are % and should not be typed.

Examples from the recorded data:
>  <compound>
COC(=O)N1[C@H](C)C[C@H](NS(C)(=O)=O)[C@@H]1COC1CCC2(c3ncc(F)c(C)n3)CC2C1 (stereo partly drawn) [Example 77]

>  <readout name>
Emax

>  <units of measure>
%

>  <value observed>
74.5

$$$$
>  <compound>
CCCS(=O)(=O)N[C@H]1C[C@@H](C)N(C(=O)OC)[C@H]1CO[C@H]1CC[C@@]2(c3ncc(F)cn3)C[C@H]2C1 [Example 33]

>  <readout name>
Emax

>  <units of measure>
%

>  <value observed>
105

$$$$
>  <compound>
COC(=O)N1[C@@H]2CCC[C@@H]2[C@H](NS(=O)(=O)C2CC2)[C@@H]1COC1CCC2(c3ncc(F)cn3)CC2C1 (stereo partly drawn) [Example 128]

>  <readout name>
Emax

>  <units of measure>
%

>  <value observed>
100

$$$$
>  <compound>
COC(=O)N1[C@H](C)C[C@H](NS(=O)(=O)N2CCC2)[C@@H]1CO[C@@H]1CC[C@]2(c3ncc(F)cn3)C[C@@H]2C1 [Example 43]

>  <readout name>
Emax

>  <units of measure>
%

>  <value observed>
97.8

$$$$
>  <compound>
COC(=O)N1[C@H](C)C[C@H](NS(=O)(=O)N(C)C)[C@@H]1COC1CCC2(c3ccc(C#N)cc3)CC2C1 (stereo partly drawn) [Example 5]

>  <readout name>
Emax

>  <units of measure>
%

>  <value observed>
99.8

$$$$

We now examine a further compound.
So what does the record say about Emax for COC(=O)N1[C@H](C)C[C@H](NS(C)(=O)=O)[C@@H]1CO[C@H]1CC[C@@]2(c3ncc(Cl)cn3)C[C@H]2C1 [Example 142] ? 102

====

target system: human OX2R (Homo sapiens (Human))
assay summary: IPOne (IP-1) assay in CHO cells expressing human OX2R
experimental setup: CHO cells expressing human OX2R; IP-One detection; 2 hours incubation; EC50 = inflection point of four parameter logistic fit; read-out: hOX2R_IP_IC50
pIC50 overview
Just the number, please; pIC50 means minus log10 of the concentration in mol/L.

>  <molecule>
CC(C)OC(=O)N1[C@H](C)C[C@H](NS(=O)(=O)N(C)C)[C@@H]1CO[C@H]1CC[C@@]2(c3ncc(F)cn3)C[C@H]2C1 (single isomer, unassigned)

>  <value observed>
9.10

$$$$
>  <molecule>
COC(=O)N1[C@H](C(F)F)C[C@H](NS(=O)(=O)C(F)F)[C@@H]1CO[C@H]1CC[C@@]2(c3ncc(F)cn3)C[C@H]2C1 (single isomer, unassigned)

>  <value observed>
9.11

$$$$
>  <molecule>
CC(C)OC(=O)N1[C@H](C)C[C@H](NS(=O)(=O)C(F)F)[C@@H]1COC1CCC2(c3ncc(F)cn3)CC2C1 (single isomer, unassigned) [Example 93]

>  <value observed>
6.34

$$$$
>  <molecule>
CC(C)OC(=O)N1[C@H](C)C[C@H](NS(C)(=O)=O)[C@@H]1CO[C@@H]1CC[C@]2(c3ncc(Cl)cn3)C[C@@H]2C1 (single isomer, unassigned)

>  <value observed>
7.71

$$$$
>  <molecule>
CC(C)OC(=O)N1CCC[C@H](NS(C)(=O)=O)[C@@H]1CO[C@H]1CC[C@@]2(c3ncc(F)cn3)C[C@H]2C1 (single isomer, unassigned)

>  <value observed>
9.02

$$$$

So what does the record say about pIC50 for CC(C)OC(=O)N1[C@H](C)C[C@H](NS(=O)(=O)N(C)C)[C@@H]1CO[C@@H]1CC[C@]2(c3ncc(F)cn3)C[C@@H]2C1 (single isomer, unassigned) ? 8.80

So what does the record say about pIC50 for COC(=O)N1[C@H](C)C[C@H](NS(=O)(=O)CF)[C@@H]1CO[C@H]1CC[C@@]2(c3ncc(Cl)cn3)C[C@H]2C1 ? 9.07

So what does the record say about pIC50 for COC(=O)N1[C@H](C(F)F)C[C@H](NS(=O)(=O)CF)[C@@H]1CO[C@H]1CC[C@@]2(c3ncc(F)cn3)C[C@H]2C1 (single isomer, unassigned) ? 9.22

So what does the record say about pIC50 for COC(=O)N1[C@H](C)C[C@H](NS(C)(=O)=O)[C@@H]1CO[C@H]1CC[C@@]2(c3ncc(C#N)cn3)C[C@H]2C1 ? 7.31

So what does the record say about pIC50 for COC(=O)N1[C@H](C)C[C@H](NS(=O)(=O)N(C)C)[C@@H]1COC1CCC2(c3ncccn3)CC2C1 (single isomer, unassigned) [Example 187] ? 8.68

So what does the record say about pIC50 for COC(=O)N1[C@H](C)C[C@H](NS(C)(=O)=O)[C@@H]1COC1CCC2(c3ccccc3)CC2C1 (single isomer, unassigned) [Example 1] ? 7.69

====

Emax overview
target system: human OX2R (Homo sapiens (Human), UniProt O43614)
assay summary: IPOne (IP-1) assay in CHO cells expressing human OX2R
Type: cell-based
experimental setup: CHO, percentage of mean max effect of a reference compound at 1 uM (100% activity by comparison to Orexin A), human OX2R; read-out: Emax (%)

Examples from the recorded data:
>  <compound>
CC(C)OC(=O)N1[C@H](C)C[C@H](NS(=O)(=O)N(C)C)[C@@H]1CO[C@H]1CC[C@@]2(c3ncc(F)cn3)C[C@H]2C1 (single isomer, unassigned)

>  <value observed>
102%

$$$$
>  <compound>
COC(=O)N1[C@H](C)C[C@H](NS(=O)(=O)CC(F)(F)F)[C@@H]1CO[C@H]1CC[C@@]2(c3ncc(F)cn3)C[C@H]2C1

>  <value observed>
103%

$$$$

We now examine a further compound.
So what does the record say about Emax for COC(=O)N1[C@H](C)C[C@H](NS(C)(=O)=O)[C@@H]1COC1CC[C@@]2(c3nccs3)C[C@H]2C1 (single isomer, unassigned) ? 101%
